assay.name: E. coli DRC41 culture turbidity changes, primary screen, E. coli filamentation inducer project, strain DRC41, OD650, 48 h (AID 1152);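 note: E. coli MC1000 strain DRC41 lacking acrAB efflux pump and sulA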
measurement.setup: E. coli DRC41 (acrAB sulA), higher = more signal, called active from +8 up or from −8 down
Please enter Condition met where z-score is greater than or equal to -0.3, and Condition not met where it is lower.

stdin: Confirm if z-score reported for the compound CC(C)CNC(=O)[C@@]1(c2ccc([N+](=O)[O-])cc2)CC(=O)N(C2CCCCC2)[C@@H]1c1ccc(CO)cc1 is -0.3 or above.
stdout: Condition met

stdin: I'd appreciate it if you could say whether [N-]=[N+]=NCc1ccccc1[C@H]1OC(c2ccc(OCCCO)cc2)=N[C@@]1(Cc1ccccc1)C(=O)NCCN1CCOCC1 has z-score at least equal to -0.3.
stdout: Condition met

stdin: Check the entry CC(C)OC(=O)CC(=O)CC(O)c1ccc([N+](=O)[O-])cc1 (centres undefined) : does z-score equal or exceed -0.3?
stdout: Condition not met

stdin: Decide: is the reported value of z-score for CCOC(=O)C[C@H]1[C@H](OC(=O)c2ccc(-c3ccccc3)cc2)[C@@H](NC(=O)CC(C)C)c2cc(OCCCO)ccc2N1C(=O)c1ccccc1 equal to or greater than -0.3?
stdout: Condition not met

stdin: Identify whether the reported z-score of the following compound is -0.3 or greater: [N-]=[N+]=Nc1ccccc1[C@@H]1OC(c2ccc(OCCCO)cc2)=N[C@]1(Cc1ccccc1)C(=O)NCc1ccccc1
stdout: Condition met

stdin: Decide: z-score of COCCOC(=O)N1C(=O)[C@@]2(c3cc(C#CC4(O)CCCCCC4)ccc31)[C@H](c1ccc(OCCO)cc1)N1[C@H](c3ccccc3)[C@H](c3ccccc3)OC(=O)[C@H]1[C@@H]2C(=O)Nc1nc2ccccc2s1 >= -0.3?
stdout: Condition not met

stdin: Hi, just wondering whether COc1ccc(C#Cc2ccc3c(c2)[C@]2(C(=O)N3)[C@H](c3ccc(OCCO)cc3)N3[C@H](c4ccccc4)[C@H](c4ccccc4)OC(=O)[C@H]3[C@@H]2C(=O)N2CCc3cc(OC)c(OC)cc3C2)cc1 shows z-score of -0.3 or higher.
stdout: Condition not met

stdin: Item O=C1OCC=C[C@H]2OC34C=CCN(c5ccc6ccccc6c5)C(=O)[C@H]3N(CCCCCO)C(=O)[C@@H]4[C@@H]12 (some centres undefined) with z-score of -0.3 or above?
stdout: Condition met

stdin: Answer whether z-score of Cc1cccc([C@H]2C[C@H]3C(Br)=C[C@@H]2C(=O)[C@]32CO2)c1 is greater than or equal to -0.3.
stdout: Condition met

stdin: Check if z-score >= -0.3 (inclusive). Item: COc1ccc([Si](C)(C)[C@H]2[C@H](CC(=O)N3Cc4ccccc4C[C@H]3CO)O[C@@]3(C(=O)N(Cc4ccc(N5C(=O)c6cccc7cccc5c67)cc4)c4ccccc43)[C@@H]2C)cc1
stdout: Condition met

stdin: Entry COCCOC(=O)N1C(=O)[C@@]2(c3cc(C#CCC(C(=O)OC)C(=O)OC)ccc31)[C@H](C(=O)NC[C@H](O)c1ccccc1)[C@H]1C(=O)O[C@H](c3ccccc3)[C@H](c3ccccc3)N1[C@@H]2c1ccc(O)cc1 : is its z-score no less than -0.3?
stdout: Condition met

stdin: Hi team, for O=c1cccc(-c2ccco2)o1 , is the recorded z-score at or above -0.3?
stdout: Condition not met

stdin: Check this compound for z-score at or above -0.3: COCC(=C=CC[C@@H](O)c1cccc(OCCO)c1)CCO
stdout: Condition met

stdin: Does CCCCNC(=O)c1ccc(C#C[Si](C(C)C)(C(C)C)C(C)C)c(OC(C)=O)c1 have a reported z-score of at least -0.3?
stdout: Condition not met
